assayName: Toxicity liver stage against HepG2, at 10uM
Format: cell-based
Parameters: test concentration 10 uM, cell line HepG2-A16-CD81EGFP
setupConditions: human, HepG2-A16-CD81EGFP cells; read-out: INHIBITION
observable: cytotoxicity at 10 µM (%)

In [3]: df
Out[3]:
                                    molecule             observable  unitdescriptor  experimentalvalue
 0      CCOc1ccccc1N1CCN(C(=O)c2cc[nH]n2)CC1  cytotoxicity at 10 µM               %                -11
 1  COCCN1CCC2(COCCN(Cc3ccc4c(c3)OCO4)C2)C1 (stereo not drawn)  cytotoxicity at 10 µM               %             -0.234
 2  Cc1ccc(-c2nc(CC(=O)NCC3CCCOC3)cs2)o1 (stereo not drawn)  cytotoxicity at 10 µM               %                -48
 3  CCOCC(O)CN1CCN(C(=O)c2ccccc2Cl)CC1 (stereo not drawn)  cytotoxicity at 10 µM               %              -1.96
 4  Cc1noc(C)c1CN1C(=O)[C@@H]2CC[C@H]1CN(Cc1nccs1)C2  cytotoxicity at 10 µM               %             -0.626
 5  Cc1nc(C)n(CC2CN(Cc3ccccc3OC(C)C)CCO2)n1 (stereo not drawn)  cytotoxicity at 10 µM               %             -0.248
 6  Cn1cc([C@@H]2CN(S(C)(=O)=O)C[C@H]2N)c2ccncc21  cytotoxicity at 10 µM               %               2.61
 7     Cc1ncccc1OC1(C(=O)NCCNc2ccccc2)CCNCC1  cytotoxicity at 10 µM               %              -12.4
 8    CNc1ncccc1C(=O)N1CCN(C)C2(CCN(C)CC2)C1  cytotoxicity at 10 µM               %               7.16
 9  Cc1ccoc1C(=O)N1C[C@H]2CCC[C@@]2(COCc2ccncc2)C1  cytotoxicity at 10 µM               %               9.56
10                   CN1CCC(NN2CCN(C)CC2)CC1  cytotoxicity at 10 µM               %              -2.76
11    CC(C)CN1CCN(C)C2(CCN(Cc3ccsc3)CC2)C1=O  cytotoxicity at 10 µM               %               4.08
12  O=C1COc2ccc(S(=O)(=O)N3CCOCC3)c3c2N1CCC3  cytotoxicity at 10 µM               %               7.55

* * *

assayName: Toxicity liver stage against HepG2, at 10uM
Assay type: cell-based
Set-up: test concentration 10 uM, cell line HepG2-A16-CD81EGFP
setupConditions: human, HepG2-A16-CD81EGFP cells; read-out: INHIBITION
Catalogue of cytotoxicity at 10 µM readings, one per entry.
observable: cytotoxicity at 10 µM (%)

In [3]: df
Out[3]:
                                    compound  unitdescriptor  experimentalvalue
 0  CC(C)NC(=O)N1CCN(Cc2ccccn2)CC2(CC(=O)N(C)C2)C1 (centres undefined)               %               2.79
 1           CN(C)CCOCc1nnc2n1CCN(CC1CC1)CC2               %              -4.87
 2  CCC(CNC(=O)c1ccccn1)N1CCc2ccccc2C1 (centres undefined)               %               1.02
 3    Cc1csc(C(=O)NCCn2nc(-n3cncn3)ccc2=O)c1               %               2.06
 4  CC1CN(Cc2cnn(C)c2)CCN1c1ccc2nncn2n1 (centres undefined)               %               2.69
 5  Cc1cc(C)nc(C2CCCNC2)n1 (centres undefined)               %               9.85
 6  Cc1ccc(F)c(C(=O)NC2CCC(N3C(=O)CCC3=O)CC2)c1 (centres undefined)               %                 -6
 7    CSc1ccc2cc(CN(C)CCCN(C)C)c(=O)[nH]c2c1               %              -2.72
 8    Cc1ccc(NC(=O)c2n[nH]c(-n3cnnc3)n2)cc1C               %               -1.4
 9  Cc1ccnn1CCC(=O)N1C[C@@H]2CC[C@H]1CN(CC(=O)N(C)C)C2               %               8.42
10        Cc1ccc(F)cc1NC(=O)CNc1cccc2c1CCCC2               %               4.33
11  COCCOCCNC(=O)C(C)Oc1ccccc1C(F)(F)F (centres undefined)               %              0.295
12  CCc1nc(C)c(C(C)N(C)CCc2ccncc2)s1 (centres undefined)               %               23.5
13  CN(CC1(CO)CCC1)c1nc2c(c(=O)[nH]1)Cc1ccccc1OC2               %              -17.2

* * *

assayName: Toxicity liver stage against HepG2, at 10uM
Assay type: cell-based
Parameters: test concentration 10 uM, cell line HepG2-A16-CD81EGFP
setupConditions: human, HepG2-A16-CD81EGFP cells; read-out: INHIBITION
observable: cytotoxicity at 10 µM (%)

                                    compound  experimentalvalue
 0  CC(OCC(F)(F)F)C(=O)N1CCCC1 (centres undefined)                -14
 1  Cc1nc(CC(=O)N2CCC(c3nn(C)c4ncccc34)CC2)cs1              -18.9
 2  CC(C)CCC(=O)NCC(=O)N1CCCCCC1c1ccco1 (centres undefined)               7.47
 3  CC(C)c1nc(CN2CCCN(Cc3nnc(C4CC4)o3)CC2)no1             -0.794
 4      COc1ccc(CN2CCn3cc(Cn4cccn4)nc3C2)cc1               13.4
 5  COc1cc(C#N)ccc1OCC(=O)NS(=O)(=O)c1ccccc1              0.165
 6  CN(C)c1cc(C2CCCN(C(=O)c3ccc(=O)[nH]n3)C2)ccn1 (centres undefined)              -9.04
 7  CS(=O)(=O)N[C@@H]1CCN(Cc2cccs2)[C@H]1Cc1cccnc1              -78.5
 8  CC(NCc1ccccc1Cl)c1ccc2[nH]c(=O)[nH]c2c1 (centres undefined)               -9.7
 9          O=C(CCc1ccccn1)N1CCSC2(CCCCC2)C1              0.547
10  CCN(CCO)C(=O)C1CCC(=O)N(Cc2cccc(OC)c2)C1 (centres undefined)              -9.49
11  CC(Cc1cccc(F)c1)C(=O)NS(=O)(=O)c1cnn(C)c1 (centres undefined)               2.11
12    CO[C@H]1CCN(Cc2nccs2)C[C@@H]1Cc1ccccc1              -71.9
13  CC(=O)N1CCCN(C2CCCCc3ccccc32)CC1 (centres undefined)              -48.6

* * *

assayName: Toxicity liver stage against HepG2, at 10uM
Format: cell-based
Set-up: test concentration 10 uM, cell line HepG2-A16-CD81EGFP
setupConditions: human, HepG2-A16-CD81EGFP cells; read-out: INHIBITION
observable: cytotoxicity at 10 µM (%)

                                   molecule             observable  unitdescriptor  experimentalvalue
0    Cc1cc(CN2CCN(C(=O)c3sccc3C3CC3)CC2)no1  cytotoxicity at 10 µM               %                -10
1  COc1ccc(NC(=O)CCN2CC=C(c3cnn(C)c3)CC2)cc1Cl  cytotoxicity at 10 µM               %               6.64
2  CN(CC(=O)NC(C)(C)C)C(=O)c1cccn1CCc1ccccc1  cytotoxicity at 10 µM               %                6.1
3  CN(Cc1noc(C2CC2)n1)C1CCN(CCS(C)(=O)=O)C1 (centres undefined)  cytotoxicity at 10 µM               %              -14.9
